Test system: EKVX
Test: Growth inhibition of human EKVX cells incubated for 48 hrs by sulforhodamine B assay
Type: functional
Field: TGI. Provide a value for each of the compounds that follow.
Quick note: give the figure in µM, leave out the unit.

Data point: C=C1CC[C@@H]2[C@](C)(COC(C)=O)[C@H](OC(C)=O)CC[C@@]2(C)[C@H]1CC(Nc1ccc(S(=O)(=O)Nc2ccc(Cl)nn2)cc1)C1=CCOC1=O (stereo not given in full) ; TGI = 17

Data point: C=C1CC[C@@H]2[C@](C)(COC(C)=O)[C@H](OC(C)=O)CC[C@@]2(C)[C@H]1CC(Nc1ccc(S(=O)(=O)Nc2nccs2)cc1)C1=CCOC1=O (stereo not given in full) ; TGI = 27

Data point: C=C1CC[C@@H]2[C@](C)(COC(C)=O)[C@H](OC(C)=O)CC[C@@]2(C)[C@H]1CC(Nc1ccc(S(=O)(=O)Nc2nccc(C)n2)cc1)C1=CCOC1=O (stereo not given in full) ; TGI = 27.1

Data point: C=C1CC[C@@H]2[C@](C)(COC(C)=O)[C@H](OC(C)=O)CC[C@@]2(C)[C@H]1CC(Nc1ccc(S(=O)(=O)Nc2cc(C)on2)cc1)C1=CCOC1=O (stereo not given in full) ; TGI = 25.9

Data point: C=C1CC[C@@H]2[C@](C)(COC(C)=O)[C@H](OC(C)=O)CC[C@@]2(C)[C@H]1CC(Nc1ccc(S(=O)(=O)Nc2ncccn2)cc1)C1=CCOC1=O (stereo not given in full) ; TGI = 20.6

----------
Field: growth at 10 µM. Provide a value for each of the compounds that follow.
Test system: NCI-H460
Assay: Anticancer activity against human NCI-H460 cells assessed as cell growth at 10 uM after 48 hrs by sulforhodamine B assay relative to control
Type: functional
Details: NCI-H460, 48 h, read-out: Activity
Quick note: give the figure in %, leave out the unit.

Data point: C=C1CC[C@@H]2[C@](C)(COC(C)=O)[C@H](OC(C)=O)CC[C@@]2(C)[C@H]1CC(Nc1ccc(S(=O)(=O)Nc2cc(C)on2)cc1)C1=CCOC1=O (stereo partly drawn) ; growth at 10 µM = 79.5

Data point: C=C1CC[C@@H]2[C@](C)(COC(C)=O)[C@H](OC(C)=O)CC[C@@]2(C)[C@H]1CC(Nc1ccc(S(=O)(=O)Nc2ccc(Cl)nn2)cc1)C1=CCOC1=O (stereo partly drawn) ; growth at 10 µM = 14.5

Data point: C=C1CC[C@@H]2[C@](C)(COC(C)=O)[C@H](OC(C)=O)CC[C@@]2(C)[C@H]1CC(Nc1ccc(S(=O)(=O)Nc2nccc(C)n2)cc1)C1=CCOC1=O (stereo partly drawn) ; growth at 10 µM = 46.9

----------
Test system: 786-0
Assay: Growth inhibition of human 786-0 cells incubated for 48 hrs by sulforhodamine B assay
Format: functional
Conditions: 786-0, 48 h
Quantity: GI50 (µM)
Quick note: give the figure in µM, leave out the unit.

Data point: C=C1CC[C@@H]2[C@](C)(COC(C)=O)[C@H](OC(C)=O)CC[C@@]2(C)[C@H]1CC(Nc1ccc(S(=O)(=O)Nc2nccc(C)n2)cc1)C1=CCOC1=O (stereo not given in full) ; GI50 = 2.27

Data point: C=C1CC[C@@H]2[C@](C)(COC(C)=O)[C@H](OC(C)=O)CC[C@@]2(C)[C@H]1CC(Nc1ccc(S(=O)(=O)Nc2nccs2)cc1)C1=CCOC1=O (stereo not given in full) ; GI50 = 2.54

Data point: C=C1CC[C@@H]2[C@](C)(COC(C)=O)[C@H](OC(C)=O)CC[C@@]2(C)[C@H]1CC(Nc1ccc(S(=O)(=O)Nc2ncccn2)cc1)C1=CCOC1=O (stereo not given in full) ; GI50 = 1.77

Data point: C=C1CC[C@@H]2[C@](C)(COC(C)=O)[C@H](OC(C)=O)CC[C@@]2(C)[C@H]1CC(Nc1ccc(S(=O)(=O)Nc2ccc(Cl)nn2)cc1)C1=CCOC1=O (stereo not given in full) ; GI50 = 1.69

Data point: C=C1CC[C@@H]2[C@](C)(COC(C)=O)[C@H](OC(C)=O)CC[C@@]2(C)[C@H]1CC(Nc1ccc(S(=O)(=O)Nc2cc(C)on2)cc1)C1=CCOC1=O (stereo not given in full) ; GI50 = 1.96

Data origin, for the record: ChEMBL document CHEMBL4033712
